The reported measurements were obtained from paper PMC5598529.

System: Caco-2 cells
test.details: Intracellular ROS
Type: cell-based, human
condition.context: 6 h exposure, p < 0.05
recorded.endpoint: H2O2 production, concentration given for the effect (µM)
Report as a plain number; the unit µM is understood.

- molecule: "COP(=S)(OC)Oc1ccc([N+](=O)[O-])c(C)c1"
  target.entity: "Caco-2 cells"
  unit.label: "µM"
  value: 25
- molecule: "O=C(NC(=O)c1c(F)cccc1F)Nc1cc(Cl)c(F)c(Cl)c1F"
  target.entity: "Caco-2 cells"
  unit.label: "µM"
  value: 100
- molecule: "CC1(C)[C@H](C(=O)O[C@H](C#N)c2cccc(Oc3ccccc3)c2)[C@@H]1C=C(Br)Br"
  target.entity: "Caco-2 cells"
  unit.label: "µM"
  value: 25

[Q] So what H2O2 production, concentration given for the effect did CC1(C)[C@H](C(=O)O[C@H](C#N)c2cccc(Oc3ccccc3)c2)[C@@H]1/C=C(\Cl)C(F)(F)F (racemic) get with Caco-2 cells?
[A] 100

[Q] Do the same for N#Cc1nn(-c2c(Cl)cc(C(F)(F)F)cc2Cl)c(N)c1[S+]([O-])C(F)(F)F (centres unmarked) please
[A] 100

###

Tested on: Caco-2 cells
test.details: Detection of apoptosis and necrosis by Hoechst 33342 and PI staining
Assay type: cell-based, human
condition.context: 25 μM, 48 h; ratio of percentage of necrotic cells in treated versus untreated cells
recorded.endpoint: Percent of necrosis in treated vs control cells

# example entries with known answers
- compound: "CC1(C)[C@H](C(=O)O[C@H](C#N)c2cccc(Oc3ccccc3)c2)[C@@H]1C=C(Br)Br [DTM, deltamethrin]"
  target.entity: "Caco-2 cells"
  value: 2.7
- compound: "O=C(NC(=O)c1c(F)cccc1F)Nc1cc(Cl)c(F)c(Cl)c1F [TBZ, teflubenzuron]"
  target.entity: "Caco-2 cells"
  value: 3.8
- compound: "N#Cc1nn(-c2c(Cl)cc(C(F)(F)F)cc2Cl)c(N)c1[S+]([O-])C(F)(F)F (stereo not shown) [FPN, fipronil]"
  target.entity: "Caco-2 cells"
  value: 3.2

[Q] For Caco-2 cells, provide Percent of necrosis in treated vs control cells of COP(=S)(OC)Oc1ccc([N+](=O)[O-])c(C)c1 [FNT, fenitrothion] please.
[A] 4.4

###

Tested on: Caco-2 cells
test.details: MTT cell viability assay
Format: cell-based, human
condition.context: Caco-2 cells, 10 days exposure, 0.1-100 μM, mean ± SEM
recorded.endpoint: EC50 (µM)
Record the value in µM, omitting the unit from your answer.

[Q] Name the recorded EC50 for N#Cc1nn(-c2c(Cl)cc(C(F)(F)F)cc2Cl)c(N)c1[S+]([O-])C(F)(F)F (stereo not shown) .
[A] 18.1

###

Test system: Caco-2 cells
test.details: Lipid peroxidation measurement
Format: cell-based, human
condition.context: 48 h exposure, p < 0.01
recorded.endpoint: Lipid peroxidation, concentration given for the effect (µM)
Numbers only here, please. The scale is µM.

Worked examples follow.
- molecule: "COP(=S)(OC)Oc1ccc([N+](=O)[O-])c(C)c1 [FNT, fenitrothion]"
  value: 25
- molecule: "CC1(C)[C@H](C(=O)O[C@H](C#N)c2cccc(Oc3ccccc3)c2)[C@@H]1C=C(Br)Br [DTM, deltamethrin]"
  value: 100
- molecule: "CC1(C)[C@H](C(=O)O[C@H](C#N)c2cccc(Oc3ccccc3)c2)[C@@H]1/C=C(\\Cl)C(F)(F)F (racemic) [LCT, lambda-cyhalothrin]"
  value: 100
- molecule: "O=C(NC(=O)c1c(F)cccc1F)Nc1cc(Cl)c(F)c(Cl)c1F [TBZ, teflubenzuron]"
  value: 25

Please find the next molecule below.
[Q] Quick one: Lipid peroxidation, concentration given for the effect of N#Cc1nn(-c2c(Cl)cc(C(F)(F)F)cc2Cl)c(N)c1[S+]([O-])C(F)(F)F (centres unmarked) [FPN, fipronil] ?
[A] 25
